- assayed_target: PI3Kδ (p110δ/p85α) Recombinant Human Protein (Homo sapiens (Human))
- Sequence (O00329 whole entry): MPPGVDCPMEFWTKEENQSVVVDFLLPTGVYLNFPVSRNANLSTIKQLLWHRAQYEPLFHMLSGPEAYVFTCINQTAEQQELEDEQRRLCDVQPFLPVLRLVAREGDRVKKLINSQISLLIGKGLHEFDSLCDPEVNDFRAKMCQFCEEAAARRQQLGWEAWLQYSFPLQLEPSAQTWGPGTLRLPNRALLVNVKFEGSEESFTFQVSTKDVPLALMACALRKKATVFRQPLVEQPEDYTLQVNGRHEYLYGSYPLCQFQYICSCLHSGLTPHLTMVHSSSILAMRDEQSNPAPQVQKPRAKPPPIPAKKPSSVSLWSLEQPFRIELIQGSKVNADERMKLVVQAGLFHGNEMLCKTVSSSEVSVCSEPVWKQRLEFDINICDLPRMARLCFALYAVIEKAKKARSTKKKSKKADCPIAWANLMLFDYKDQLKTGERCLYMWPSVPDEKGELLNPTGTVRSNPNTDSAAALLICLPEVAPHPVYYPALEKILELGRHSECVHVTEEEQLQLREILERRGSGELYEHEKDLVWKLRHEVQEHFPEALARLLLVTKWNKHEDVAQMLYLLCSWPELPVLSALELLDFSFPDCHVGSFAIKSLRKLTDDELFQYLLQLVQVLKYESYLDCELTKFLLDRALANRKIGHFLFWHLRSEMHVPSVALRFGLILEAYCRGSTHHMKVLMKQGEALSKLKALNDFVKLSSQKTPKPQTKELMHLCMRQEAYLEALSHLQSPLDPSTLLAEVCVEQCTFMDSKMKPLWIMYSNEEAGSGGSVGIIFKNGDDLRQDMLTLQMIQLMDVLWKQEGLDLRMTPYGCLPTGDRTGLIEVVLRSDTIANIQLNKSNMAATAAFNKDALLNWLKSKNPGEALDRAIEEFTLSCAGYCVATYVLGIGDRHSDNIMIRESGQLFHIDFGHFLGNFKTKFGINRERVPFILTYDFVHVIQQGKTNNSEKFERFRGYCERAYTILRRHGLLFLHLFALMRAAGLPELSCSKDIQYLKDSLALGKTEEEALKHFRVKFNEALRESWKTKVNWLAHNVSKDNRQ
- Sequence (P27986 whole entry partner): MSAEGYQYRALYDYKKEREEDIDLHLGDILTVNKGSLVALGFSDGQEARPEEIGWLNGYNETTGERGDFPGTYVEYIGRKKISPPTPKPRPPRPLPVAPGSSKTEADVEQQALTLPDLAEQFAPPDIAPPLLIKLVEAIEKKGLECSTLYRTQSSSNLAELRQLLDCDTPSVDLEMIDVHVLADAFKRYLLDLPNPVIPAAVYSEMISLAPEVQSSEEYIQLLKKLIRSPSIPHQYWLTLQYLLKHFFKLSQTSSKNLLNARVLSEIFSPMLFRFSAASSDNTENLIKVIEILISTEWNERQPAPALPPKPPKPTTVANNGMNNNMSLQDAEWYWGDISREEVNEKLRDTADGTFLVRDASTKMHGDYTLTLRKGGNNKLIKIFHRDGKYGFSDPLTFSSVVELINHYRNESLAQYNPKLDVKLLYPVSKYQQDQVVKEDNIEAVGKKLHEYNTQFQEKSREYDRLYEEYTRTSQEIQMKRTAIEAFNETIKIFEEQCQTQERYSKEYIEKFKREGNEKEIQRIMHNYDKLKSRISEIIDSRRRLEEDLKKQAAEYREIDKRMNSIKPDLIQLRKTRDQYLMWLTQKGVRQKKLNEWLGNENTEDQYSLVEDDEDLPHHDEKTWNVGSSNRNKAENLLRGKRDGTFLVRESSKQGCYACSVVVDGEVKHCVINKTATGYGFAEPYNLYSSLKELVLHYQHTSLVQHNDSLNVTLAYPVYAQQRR
- assay_info: PI3Kδ scintillation proximity assay
- Format: biochemical
- condition_description: 20 μM PIP2, 2 μM ATP, 3.4 nM PI3Kδ, 120 min, room temperature; read-out: PI3Kδ IC50
pIC50: −log10 of the molar value. Where a name gives a salt, the structure may show the parent alone.
Parameter: pIC50. Scope: all listed entries.
readout: pIC50

compound | result
Cc1ccc(C(C)(O)C(F)(F)F)cc1-c1cnc2c(N)nc(C3CC(CO)C3)cn12 (single isomer, unassigned) [Example 208, trifluoroacetate] | > 7.00
Cc1ccc(C(O)(C(=O)NC23CC(C2)C3)C(F)(F)F)cc1-c1cnc2c(N)nc(C(F)(F)F)cn12 (stereo not drawn) [Example 129, trifluoroacetate salt] | > 7.00
Cc1ccc(C(C)(O)C(F)F)cc1-c1cnc2c(N)nc(C(F)(F)F)cn12 (single isomer, unassigned) [Example 27] | 6.30 to 7.00
